Target: human kappa opioid receptor (hKOR) (Homo sapiens)
Construct: expressed in transfected cells; host or cells: HEK-293 cells, transient transfection with Fugene6
Sequence (P41145 whole entry): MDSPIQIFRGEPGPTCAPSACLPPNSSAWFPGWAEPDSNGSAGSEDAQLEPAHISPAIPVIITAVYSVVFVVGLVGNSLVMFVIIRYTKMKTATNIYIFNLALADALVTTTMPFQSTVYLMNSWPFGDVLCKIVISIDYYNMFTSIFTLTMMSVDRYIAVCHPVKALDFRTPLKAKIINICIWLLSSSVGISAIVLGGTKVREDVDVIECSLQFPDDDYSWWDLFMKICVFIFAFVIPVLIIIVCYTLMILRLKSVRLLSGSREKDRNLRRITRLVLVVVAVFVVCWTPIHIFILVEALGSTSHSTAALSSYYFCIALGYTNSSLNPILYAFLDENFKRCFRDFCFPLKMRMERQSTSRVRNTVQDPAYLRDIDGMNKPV
Assay: cell-based
Conditions: HEK293, read-out: hKOR Efficacy(%)
// Emax lookup, one value per entry
Form entry: value (%) — number only.

Sample answers from the record:
Smiles str	Tgt	Result unit	Readout value
CC(C)C[C@@H](NC(=O)[C@@H](Cc1ccccc1)NC(=O)[C@H](N)Cc1ccccc1)C(=O)N[C@H](CCCCN)C(=O)N1CCC(n2c(=O)[nH]c3cc(Cl)ccc32)CC1	human kappa opioid receptor (hKOR) (Homo sapiens)	%	100
CC(C)C[C@@H](NC(=O)[C@@H](Cc1ccccc1)NC(=O)[C@H](N)Cc1ccccc1)C(=O)N[C@H](CCCNC(C)C)C(=O)N1CCCNCC1	human kappa opioid receptor (hKOR) (Homo sapiens)	%	98

Kindly review the next compound as well.
Sample "CC(C)C[C@@H](N)C(=O)N[C@H](CCCN)C(=O)N[C@@H](CCCCNC(=O)[C@@H](CCCN)NC(=O)[C@@H](CC(C)C)NC(=O)[C@@H](Cc1ccccc1)NC(=O)[C@H](N)Cc1ccccc1)C(=O)O" , system: human kappa opioid receptor (hKOR) (Homo sapiens). Its Emax is 83
